assay: in vivo; conditions: male, NODSCID 1L2RγKO, mouse, iv, total radioactivity, Stomach uptake
The threshold is 0.1 %ID/g. Values of tissue uptake at 1 h beneath it are tagged yes; values meeting or exceeding it are tagged no.

As a guide, the following entries are already answered.
O=C(O)CC[C@H](NC(=O)N[C@@H](CCCCNC(=O)[C@H](Cc1c2ccccc2cc2ccccc12)NC(=O)[C@H]1CC[C@H](CNC(=O)CN2CCN(CC(=O)O)CCN(CC(=O)O)CCN(CC(=O)O)CC2)CC1)C(=O)O)C(=O)O [68Ga-HTK03041, metal not drawn] : no
O=C(O)CN1CCN(CC(=O)O)CCN(CC(=O)NC[C@H]2CC[C@H](C(=O)N[C@@H](Cc3c4ccccc4cc4ccccc34)C(=O)NCCCC[C@H](NC(=O)N[C@@H](C[C@H](F)C(=O)O)C(=O)O)C(=O)O)CC2)CCN(CC(=O)O)CC1 [68Ga-HTK04040, metal not drawn] : no
O=C(O)CCC[C@H](NC(=O)N[C@@H](CCCCNC(=O)[C@H](Cc1cccc(I)c1)NC(=O)[C@H]1CC[C@H](CNC(=O)CN2CCN(CC(=O)O)CCN(CC(=O)O)CCN(CC(=O)O)CC2)CC1)C(=O)O)C(=O)O [68Ga-HTK04053, metal not drawn] : yes

As a next step, examine the molecule that follows.
Query block: Dear reviewer, please state whether O=C(O)CCCCC(NC(=O)N[C@@H](CCCCNC(=O)[C@H](Cc1c2ccccc2cc2ccccc12)NC(=O)[C@H]1CC[C@H](CNC(=O)CN2CCN(CC(=O)O)CCN(CC(=O)O)CCN(CC(=O)O)CC2)CC1)C(=O)O)C(=O)O (single isomer, unassigned) [68Ga-HTK03189A, metal not drawn] has tissue uptake at 1 h strictly beneath 0.1 %ID/g.
Result block: no

src = patent US11504441B2
